Compiled record: IC50 values for Beta-secretase 2 (Homo sapiens) across several sources.
Field: numeric (nM). Do not append units.

IN: Enter measured IC50, system Beta-secretase 2 (Homo sapiens), for the molecule shown: COc1ccc(Nc2ccc(F)c([C@@]3(C)N=C(N)COC(C)(C)C3(F)F)c2)cn1
OUT: 1630

IN: Enter measured IC50, system Beta-secretase 2 (Homo sapiens), for the molecule shown: CC[C@@]1(c2cc(NC(=O)c3ncc(Cl)cn3)ccc2F)CCSC(N)=N1
OUT: 440

IN: Enter measured IC50, system Beta-secretase 2 (Homo sapiens), for the molecule shown: CCc1ccc(C(=O)Nc2cccc([C@]3(C)CC(=O)N(C)C(N)=N3)c2)nc1
OUT: 40

IN: Enter measured IC50, system Beta-secretase 2 (Homo sapiens), for the molecule shown: COc1cccnc1C(=O)Nc1cccc([C@]2(C)CC(=O)N(C)C(N)=N2)c1
OUT: 160

IN: Enter measured IC50, system Beta-secretase 2 (Homo sapiens), for the molecule shown: CCC[C@@]1(c2cccc(NC(=O)c3ccn(C)n3)c2)CC(=O)N(C)C(N)=N1
OUT: 4750

IN: Enter measured IC50, system Beta-secretase 2 (Homo sapiens), for the molecule shown: CN1C(=O)C[C@@](C)(c2cccc(NC(=O)c3nc(Cl)ccc3Cl)c2)N=C1N
OUT: 976

IN: Enter measured IC50, system Beta-secretase 2 (Homo sapiens), for the molecule shown: CN1C(=O)C[C@@](C)(c2cccc(NC(=O)c3ccc(Cl)s3)c2)N=C1N
OUT: 14

IN: Enter measured IC50, system Beta-secretase 2 (Homo sapiens), for the molecule shown: CC[C@@]1(c2cccc(NC(=O)c3ccc(Cl)s3)c2)CC(=O)N(C)C(N)=N1
OUT: 95

IN: Enter measured IC50, system Beta-secretase 2 (Homo sapiens), for the molecule shown: CN1C(=O)C(C)(C)[C@@](C)(c2cc(NC(=O)c3cn(C)cn3)ccc2F)N=C1N
OUT: 1260

IN: Enter measured IC50, system Beta-secretase 2 (Homo sapiens), for the molecule shown: CC(F)(F)[C@H]1OC[C@]2(c3cc(NC(=O)c4ccc(C(F)(F)F)cn4)ccc3F)N=C(N)OC[C@H]12
OUT: 602

IN: Enter measured IC50, system Beta-secretase 2 (Homo sapiens), for the molecule shown: CN1C(=O)C[C@@](C)(c2cccc(NC(=O)c3ccon3)c2)N=C1N
OUT: 170

IN: Enter measured IC50, system Beta-secretase 2 (Homo sapiens), for the molecule shown: C[C@]1(c2cc(Nc3ncc(F)c4cc(C#N)cnc34)ccc2F)N=C(N)[C@@]2(CF)CC[C@@H]1S2(=O)=O
OUT: 2

IN: Enter measured IC50, system Beta-secretase 2 (Homo sapiens), for the molecule shown: CN1C(=O)C[C@]2(CCc3ccc(NC(=O)c4ccc(OCC(F)(F)F)cn4)cc32)N=C1N
OUT: 220

IN: Enter measured IC50, system Beta-secretase 2 (Homo sapiens), for the molecule shown: CC#CCOc1cnc(C(=O)Nc2ccc(F)c([C@@]3(C)N=C(N)[C@]4(C)CC[C@H]3S4(=O)=O)c2)cn1
OUT: 82

IN: Enter measured IC50, system Beta-secretase 2 (Homo sapiens), for the molecule shown: CC[C@@]1(c2cc(NC(=O)c3ncccc3C(F)(F)F)ccc2F)CCSC(N)=N1
OUT: 5460

IN: Enter measured IC50, system Beta-secretase 2 (Homo sapiens), for the molecule shown: C[C@]1(c2cc(NC3CCOCC3)ccc2F)N=C(N)COC[C@@H]1F
OUT: 1480

IN: Enter measured IC50, system Beta-secretase 2 (Homo sapiens), for the molecule shown: CN1C(=O)C[C@@](C)(c2cc(NC(=O)c3ncc(Cl)cn3)ccc2F)N=C1N
OUT: 14

IN: Enter measured IC50, system Beta-secretase 2 (Homo sapiens), for the molecule shown: COc1cnc2c(Nc3ccc(F)c([C@@]4(C)N=C(N)[C@@]5(CF)CC[C@@H]4S5(=O)=O)c3)nccc2n1
OUT: 10

IN: Enter measured IC50, system Beta-secretase 2 (Homo sapiens), for the molecule shown: CC[C@@]1(c2cccc(NC(=O)c3ncc(Cl)cn3)c2)CC(=O)N(C)C(N)=N1
OUT: 7

IN: Enter measured IC50, system Beta-secretase 2 (Homo sapiens), for the molecule shown: CN1C(=N)N[C@](C)(c2cc(NC(=O)c3ccc(C(F)(F)F)cn3)ccc2F)CC1=O
OUT: 9

IN: Enter measured IC50, system Beta-secretase 2 (Homo sapiens), for the molecule shown: CN1C(=O)C[C@@](C)(c2cccc(NC(=O)c3ccncc3)c2)N=C1N
OUT: 960

IN: Enter measured IC50, system Beta-secretase 2 (Homo sapiens), for the molecule shown: Cc1cc(C(=O)Nc2cccc([C@]3(C)CC(=O)N(C)C(N)=N3)c2)n(C)n1
OUT: 126

IN: Enter measured IC50, system Beta-secretase 2 (Homo sapiens), for the molecule shown: C[C@@]1(c2cccc(NC(=O)c3ccc(Cl)cn3)c2)CC(=O)N(CC2CC2)C(N)=N1
OUT: 42

IN: Enter measured IC50, system Beta-secretase 2 (Homo sapiens), for the molecule shown: CN1C(=O)C[C@@](C)(c2cccc(NC(=O)c3ncccc3Sc3ccccc3)c2)N=C1N
OUT: 240

IN: Enter measured IC50, system Beta-secretase 2 (Homo sapiens), for the molecule shown: C[C@]1(c2cc(NCc3nn(C(F)F)cc3Cl)ccc2F)N=C(N)COCC1(F)F
OUT: 11

IN: Enter measured IC50, system Beta-secretase 2 (Homo sapiens), for the molecule shown: CN1C(=O)C(C)(C)[C@@](C)(c2cc(NC(=O)c3ccc(C(F)(F)F)cn3)ccc2F)N=C1N
OUT: 20

IN: Enter measured IC50, system Beta-secretase 2 (Homo sapiens), for the molecule shown: CN1C(=O)C[C@]2(CCc3ccc(NC(=O)c4ccc(Cl)cn4)cc32)N=C1N
OUT: 160

IN: Enter measured IC50, system Beta-secretase 2 (Homo sapiens), for the molecule shown: Cc1cc(Cl)cnc1C(=O)Nc1ccc(F)c([C@@]2(C)N=C(N)[C@]3(CF)CC[C@H]2S3(=O)=O)c1
OUT: 6

IN: Enter measured IC50, system Beta-secretase 2 (Homo sapiens), for the molecule shown: CN1C(=O)C[C@@](C)(c2cccc(NC(=O)c3ccc(Cl)nc3)c2)N=C1N
OUT: 549

IN: Enter measured IC50, system Beta-secretase 2 (Homo sapiens), for the molecule shown: C[C@]1(c2cc(Nc3ncnc4cc(C#N)cnc34)ccc2F)N=C(N)[C@@]2(CF)CC[C@@H]1S2(=O)=O
OUT: 22

IN: Enter measured IC50, system Beta-secretase 2 (Homo sapiens), for the molecule shown: C[C@]1(c2cc(N[C@H]3CCc4cc(Cl)cnc43)ccc2F)N=C(N)COCC1(F)F
OUT: 30

IN: Enter measured IC50, system Beta-secretase 2 (Homo sapiens), for the molecule shown: CC[C@@]1(c2cc(NC(=O)c3coc(C)n3)ccc2F)CCSC(N)=N1
OUT: 475
